Source of measurements: ChEMBL document CHEMBL1128854

biological target: Kappa-type opioid receptor (Rattus norvegicus); test: Inhibition of 9 (2 nM) binding to Opioid receptor kappa 1 of rat brain homogenate; type: tissue-based
Sequence (P34975 whole entry): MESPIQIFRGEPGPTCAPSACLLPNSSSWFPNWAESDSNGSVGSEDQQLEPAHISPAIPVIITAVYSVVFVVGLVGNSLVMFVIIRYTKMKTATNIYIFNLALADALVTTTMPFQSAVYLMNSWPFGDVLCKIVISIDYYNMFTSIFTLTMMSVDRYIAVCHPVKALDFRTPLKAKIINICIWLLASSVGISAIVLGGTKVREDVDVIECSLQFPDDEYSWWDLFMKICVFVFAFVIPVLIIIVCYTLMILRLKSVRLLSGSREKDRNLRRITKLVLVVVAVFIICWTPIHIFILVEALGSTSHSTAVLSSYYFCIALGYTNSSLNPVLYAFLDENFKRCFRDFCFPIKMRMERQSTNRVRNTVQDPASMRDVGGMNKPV
I'd appreciate it if you could supply pKi values for the items below.
Answers are plain numbers, as −log10 of the molar value.

| structure | pKi |
| --- | --- |
| CC[C@@H](C)N(C[C@@H](O)[C@@H]1CCC(=O)N1Cc1ccccc1Cl)[C@@H](C)CC | 5.44 |

Give measured pKi for every item shown.
1. CC[C@@H](C)N(C[C@@H](O)[C@H]1CCC(=O)N1Cc1ccccc1Cl)[C@@H](C)CC
2. CC[C@@H](C)N(C[C@H](O)[C@@H]1CCC(=O)N1Cc1ccccc1Cl)[C@H](C)CC
3. CC[C@@H](C)N(C[C@H](O)[C@H]1CCC(=O)N1Cc1ccccc1Cl)[C@@H](C)CC
4. CC[C@H](C)N(C[C@H](O)[C@H]1CCC(=O)N1Cc1ccccc1Cl)[C@@H](C)CC

result:
6.59
7.20
6.70
6.57

Documented pKi of CC[C@@H](C)N(C[C@@H](O)[C@H]1CCC(=O)N1Cc1ccccc1Cl)[C@H](C)CC : 5.31
